tested on: NCI-H23 lung; assay: NCI tumour cell line growth inhibition, 48 h
Could you please report measured TGI for the items listed next?

Kindly note the recorded TGI for CCOC(=O)c1c(N2CCCC2)[nH]c(=O)c(C(c2c(O)c(C(=O)OCC)c(N3CCCC3)[nH]c2=O)C(C)C)c1O , which is > 100 µM

Kindly note the recorded TGI for Cc1cc2c(cc1Cl)SC(N(c1ccccc1Cl)S(=O)(=O)c1ccc(Br)s1)=NS2(=O)=O , which is 56.4 µM

Kindly note the recorded TGI for O=C(COc1ccc(/C=C2\Oc3ccc4ccccc4c3C2=O)cc1)c1ccc([N+](=O)[O-])cc1 , which is 29.4 µM

Kindly note the recorded TGI for N#C/C(=C\c1ccc(O)c(O)c1)c1c(C#N)c(N)nn1-c1ccccc1 , which is 25.3 µM

Kindly note the recorded TGI for c1ccc(-c2csc3c2-n2cccc2C3N2CCCC2)cc1 (centres undefined) , which is > 100 µM

Kindly note the recorded TGI for Cc1cc(F)c(C(=O)Nc2cccc(-c3nncn3C(C)C)n2)cc1-n1cnc(C2CC2)c1 , which is 46.6 µM

Kindly note the recorded TGI for COc1ccc2[nH]c3cc4c(=O)c5cc(OC)ccc5[nH]c4cc3c(=O)c2c1 , which is > 100 µM

Kindly note the recorded TGI for O=C1CC(c2ccc(Cl)cc2)C2(C(=O)NC(=S)NC2=O)C(c2ccc(Cl)cc2)C1 (centres undefined) , which is 39 µM

Kindly note the recorded TGI for Clc1ccc(Nc2ncco2)cc1Cl , which is > 10 µM

* * *

tested on: DU-145 prostate; test: NCI tumour cell line growth inhibition, 48 h
readout label: TGI

Kindly note the recorded TGI for Nc1n[n+]([O-])c2cc([N+](=O)[O-])ccc2[n+]1[O-] , which is 31.7 µM

Kindly note the recorded TGI for O=c1oc2ccc([N+](=O)[O-])cc2nc1/C=C(\O)c1ccccc1 , which is > 100 µM

Kindly note the recorded TGI for C/C=C/CC(C(=O)OCC)(N(C)C(=O)OC(C)(C)C)S(=O)(=O)c1ccc(C)cc1 (stereo not given) , which is > 100 µM

Kindly note the recorded TGI for COc1ccccc1C1C2=C(COC2=O)Oc2cc3c(cc21)OCO3 (stereo not given) , which is > 42.4 µM

Kindly note the recorded TGI for OCC1NC(COC2OC(CO)C(O)C(O)C2O)C(O)C(O)C1O (stereo not given) , which is > 100 µM

* * *

test system: KM12 colon; assay: NCI tumour cell line growth inhibition, 48 h
readout label: GI50

Item COc1ccc(-c2nn(-c3cccc(Cl)c3)cc2/C=C2\NC(=S)N(c3ccc(Cl)cc3)C2=O)cc1 was tested on KM12 colon; the reported GI50 is 10.1 µM

Item C[C@@H](Nc1nc(N[C@H](C)C(F)(F)F)nc(-c2cccc(Cl)n2)n1)C(F)(F)F was tested on KM12 colon; the reported GI50 is > 100 µM

Item O=C1c2c(O)cccc2C(C(=O)CCCCCC(=O)C2c3cccc(O)c3C(=O)c3c(O)cccc32)c2cccc(O)c21 was tested on KM12 colon; the reported GI50 is 1.65 µM

Item Cc1cc2c(cc1Cl)SC(N(c1ccccc1Cl)S(=O)(=O)c1ccc(Br)s1)=NS2(=O)=O was tested on KM12 colon; the reported GI50 is 25.8 µM

Item O=C([CH-]C(=O)c1ccccc1)c1ccccc1.[C-]#[O+].[C-]#[O+].[Ir] was tested on KM12 colon; the reported GI50 is 66.1 µM

Item CN1CCN(CCCOc2cccc3nc(Nc4cc(Cl)cc(Cl)c4)ccc23)CC1 was tested on KM12 colon; the reported GI50 is 1.72 µM

Item C=CC(=O)N[C@@H]1CN(c2nc(Nc3cn(C)nc3OC)c3ncn(C)c3n2)C[C@H]1F was tested on KM12 colon; the reported GI50 is 33.6 µM

Item COc1cccc(/C=N/[N-]C(=O)c2ccncc2)c1[O-].[Mn+2].[OH3+] was tested on KM12 colon; the reported GI50 is 8.31 µM

Item Cc1nc2ccccn2c1NC(=O)NN1C(=O)CSC1c1ccc(Cl)cc1 (centres undefined) was tested on KM12 colon; the reported GI50 is > 100 µM

* * *

Could you please report measured GI50 for the items listed next?
test system: EKVX NSCLC; assay: NCI tumour cell line growth inhibition, 48 h

Kindly note the recorded GI50 for Cc1cc(S(=O)(=O)/N=C(\N)Nc2cccc(O)c2)c(SCc2ccccc2)cc1Cl , which is 12.7 µM

Kindly note the recorded GI50 for O=C([CH-]C(=O)c1ccccc1)c1ccccc1.[C-]#[O+].[C-]#[O+].[Ir] , which is > 100 µM

Kindly note the recorded GI50 for O=C(COc1ccc(/C=C2\Oc3ccc4ccccc4c3C2=O)cc1)c1ccc([N+](=O)[O-])cc1 , which is 47.6 µM

Kindly note the recorded GI50 for CC1(C)OB(c2ccc(N(CCOS(C)(=O)=O)CCOS(C)(=O)=O)cc2)OC1(C)C , which is 23.4 µM

Kindly note the recorded GI50 for Cc1nnc(C[C@@H]2C=C(c3ccc(Cl)cc3)c3ccccc3-n3c(C)nnc32)o1 , which is 6.01 µM

Kindly note the recorded GI50 for O=CC(OC(=O)c1ccccc1)C(OC(=O)c1ccccc1)C(COC(c1ccccc1)(c1ccccc1)c1ccccc1)OC(=O)c1ccccc1 (stereo not drawn) , which is 19.6 µM

Kindly note the recorded GI50 for N#C/C(=C\c1ccc(O)c(O)c1)C(=O)NCc1ccc(C(F)(F)F)cc1 , which is 19.7 µM

Kindly note the recorded GI50 for CCN(C(=O)N1CCN(c2cc3c(cc2F)c(=O)c(C(=O)O)cn3C2CC2)CC1)c1nc(-c2ccccc2)cs1 , which is 3.35 µM

* * *

tested on: KM12 colon; experiment: NCI tumour cell line growth inhibition, 48 h
Could you please report measured TGI for the items listed next?

Kindly note the recorded TGI for Nc1nc(=O)n(C2CC(O)C(CO)O2)cc1F (stereo unspecified) , which is > 100 µM

Kindly note the recorded TGI for C/C=C/CC(C(=O)OCC)(N(C)C(=O)OC(C)(C)C)S(=O)(=O)c1ccc(C)cc1 (stereo unspecified) , which is > 100 µM

Kindly note the recorded TGI for O=C1NC(=O)C(C(=O)C(=O)Nc2cc(Cl)ccc2Cl)C(=O)N1 , which is > 100 µM

Kindly note the recorded TGI for C/C=C1/CN2CCC34C(=C(C(=O)OC)C1CC23)Nc1ccc(O)cc14 (stereo unspecified) , which is > 100 µM

Kindly note the recorded TGI for NCCOc1ccc(/C(=C(/Cl)c2ccccc2)c2ccccc2)cc1 , which is 16.7 µM

Kindly note the recorded TGI for Cc1nnc(C[C@@H]2C=C(c3ccc(Cl)cc3)c3ccccc3-n3c(C)nnc32)o1 , which is > 100 µM

Kindly note the recorded TGI for CCOC(=O)NN(C(=O)OCC)c1ccc(N=Nc2ccc(OC)cc2)n1C , which is 76.9 µM

Kindly note the recorded TGI for CC(C)OP(=O)(OC(C)C)C(=NCCO)NNc1ccc([N+](=O)[O-])cc1 , which is > 100 µM

Kindly note the recorded TGI for CCCCCCCCCCC(=O)CCCCCCC(=O)O , which is 29.9 µM

Kindly note the recorded TGI for OCC#CCOCC#Cc1ccccc1C#CCOCC#CCO , which is > 100 µM

Kindly note the recorded TGI for CCCNC1=C2C[C@@H](C)C[C@@H](OC)[C@@H](OC(=O)CCCN)[C@H](C)/C=C(\C)[C@@H](OC(N)=O)[C@H](OC)/C=C\C=C(/C)C(=O)NC(=CC1=O)C2=O , which is 26.1 µM

* * *

test system: SK-MEL-2 melanoma; assay: NCI tumour cell line growth inhibition, 48 h
Could you please report measured TGI for the items listed next?

Kindly note the recorded TGI for C[C@@H]1CC[C@H]2[C@@H](C)C(O)O[C@@H]3O[C@]4(C)CC[C@@H]1[C@]32OO4 (stereo partly drawn) , which is 15.2 µM

Kindly note the recorded TGI for CCCCn1c(-c2ccccc2)cs/c1=N\N=C1C=C(C(C)(C)C)C(=O)C(C(C)(C)C)=C1 , which is > 100 µM

Kindly note the recorded TGI for COc1ccc(-c2nn(-c3cccc(Cl)c3)cc2/C=C2\NC(=S)N(c3ccc(Cl)cc3)C2=O)cc1 , which is 9.61 µM

Kindly note the recorded TGI for CCOC(=O)c1oc2c(OC)ccc3c2c1CCC3 , which is > 100 µM

Kindly note the recorded TGI for CCc1cccc(C(C)C)c1NC(=O)CC1Sc2ccccc2NC1=O (stereo not drawn) , which is > 100 µM

Kindly note the recorded TGI for C[C@@H](Nc1nc(N[C@H](C)C(F)(F)F)nc(-c2cccc(Cl)n2)n1)C(F)(F)F , which is > 100 µM

Kindly note the recorded TGI for C=C1CC[C@@]2(C)[C@@H]([C@@H]1C)[C@H]1CC[C@@H]3[C@@]4(C)CC[C@H](O)C(C)(C)[C@@H]4CC[C@@]3(C)[C@]1(C)C[C@@H]2O , which is 12.7 µM

Kindly note the recorded TGI for Cc1cccc2c(N)c3cccc(C(=O)NCC[N+](C)(C)Cc4ccc([N+](=O)[O-])n4C)c3nc12 , which is > 100 µM

Kindly note the recorded TGI for C1=N[C@]23C(=N[C@H](N=C2NCc2ccco2)[C@]24N=CNC2=N[C@H]3N=C4NCc2ccco2)N1 , which is > 100 µM

Kindly note the recorded TGI for CN(C)c1ccc(C(=S)c2ccc(N(C)C)cc2)cc1 , which is 15.2 µM

Kindly note the recorded TGI for Cc1ccc(S(=O)(=O)N(CC(O)COc2ccccc2)c2c(F)c(F)cc(F)c2F)cc1 (stereo not drawn) , which is 31.3 µM

Kindly note the recorded TGI for CC(=O)NNc1nc(C)c(C(=O)NNC(=O)C(=O)Nc2ccc(Cl)c([N+](=O)[O-])c2)s1 , which is > 100 µM

Kindly note the recorded TGI for N#CCCN(CCC#N)c1ccc(/C=C(/NC(=O)c2cc([N+](=O)[O-])ccc2Cl)C(=O)N=[N+]=[N-])cc1 , which is > 100 µM

Kindly note the recorded TGI for Cc1ccccc1/C=C/c1csnn1 , which is > 100 µM

Kindly note the recorded TGI for O=C1NC(=O)C(C(=O)C(=O)Nc2cc(Cl)ccc2Cl)C(=O)N1 , which is > 100 µM

Kindly note the recorded TGI for C/C=C1\CC(C(=O)OCC)CCCCCCC1=O (stereo not drawn) , which is > 100 µM

Kindly note the recorded TGI for CCOC(=O)COc1cc(-c2ccccc2F)nc2cc3c(cc12)OCO3 , which is > 100 µM

Kindly note the recorded TGI for CC(=O)N[C@H](C)[C@@H](O)[C@@H](C)[C@@H]1OC(=O)/C=C/C=C(C)\C=C\[C@]2(C)C[C@@H](NS(C)(=O)=O)C=C[C@@H]2/C=C(C)/C=C/[C@H]1C , which is > 43.5 µM

Where do the numbers come from? From PubChem BioAssay (NCI).
